So I've got a bunch of compounds here, and I need their CC50 at 72 h values.
assay.info: Cytotoxicity against human HeLa cells after 72 hrs by MTT assay
Format: cell-based
Form entry: value (µg/mL) — number only.

Please fill in: CC50 at 72 h reported for C(=C\c1ccccc1)/C=N/c1sc2c(c1-c1nc3ccccc3s1)CCC2 = 100

compound Clc1ccccc1/C=N/c1sc2c(c1-c1nc3ccccc3s1)CCC2 , CC50 at 72 h observed: 138

# CC50 at 72 h (compound: Fc1ccccc1/C=N/c1sc2c(c1-c1nc3ccccc3s1)CCCC2 ) is 426

For reference, reported CC50 at 72 h for Clc1ccc(/C=N/c2sc3c(c2-c2nc4ccccc4s2)CCC3)cc1 stands at 380

For Clc1ccc2sc(-c3c(/N=C/C=C/c4ccccc4)sc4c3CCC4)nc2c1 the compound record lists CC50 at 72 h as 200

CC50 at 72 h for Fc1ccc(/C=N/c2sc3c(c2-c2nc4ccccc4s2)CCCC3)cc1 is 277

# CC50 at 72 h of COc1cc(/C=N/c2sc3c(c2-c2nc4ccccc4s2)CCCC3)cc(OC)c1OC = 448

Just so you know, measured CC50 at 72 h for C(=C\c1ccccc1)/C=N/c1sc2c(c1-c1nc3ccccc3s1)CCCC2 came out at 389

// field: CC50 at 72 h; key: Clc1ccc(/C=N/c2sc3c(c2-c2nc4ccccc4s2)CCCC3)c(Cl)c1 ; value = 542

Sure, the documented CC50 at 72 h for Nc1sc2c(c1-c1nc3cc(Cl)ccc3s1)CCCC2 is 107

The reported value for O=[N+]([O-])c1ccccc1/C=N/c1sc2c(c1-c1nc3ccccc3s1)CCCC2 in terms of CC50 at 72 h is 369

Consider Oc1ccccc1/C=N/c1sc2c(c1-c1nc3cc(Cl)ccc3s1)CCC2 . Its measured CC50 at 72 h is 251

So, Fc1ccc(/C=N/c2sc3c(c2-c2nc4ccccc4s2)CCC3)cc1 ? Its CC50 at 72 h was 372

Input Nc1sc2c(c1-c1nc3ccccc3s1)CCCC2 . Output CC50 at 72 h: 475

###

Hi there, I'd appreciate the recorded selectivity ratio for every entry that follows.
assay.info: Selectivity index, ratio of CC50 for human rhabdomyosarcoma cells to EC50 for Enterovirus 71 infected in human rhabdomyosarcoma cells
Assay type: toxicity
condition.notes: read-out: Ratio CC50/EC50
Answer with a bare number; do not write a unit.

Record Nc1sc2c(c1-c1nc3cc(Cl)ccc3s1)CCCC2 . Reported selectivity ratio: 33.7

Lab note: Oc1ccccc1/C=N/c1sc2c(c1-c1nc3ccccc3s1)CCCC2 gave selectivity ratio of 20.3

For record C(=N\c1sc2c(c1-c1nc3ccccc3s1)CCCC2)/c1ccccc1 the listed selectivity ratio is 4.9

molecule Nc1sc2c(c1-c1nc3cc(Cl)ccc3s1)CCC2 , selectivity ratio observed: 46.9

###

assay.info: Selectivity index, ratio of CC50 for human HepG2 cells to EC50 for Coxsackievirus B5 infected in human HepG2 cells
Type: toxicity, cell-based
condition.notes: read-out: Ratio CC50/EC50
Field: selectivity ratio. Provide a value for each of the molecules that follow.
No unit in the answer, only the number.

Reported selectivity ratio ( C(=C\c1ccccc1)/C=N/c1sc2c(c1-c1nc3ccccc3s1)CCCC2 ) = 31.6

// selectivity ratio value for Oc1ccccc1/C=N/c1sc2c(c1-c1nc3ccccc3s1)CCCC2 : 20.8

// selectivity ratio lookup, molecule = Fc1ccc(/C=N/c2sc3c(c2-c2nc4ccccc4s2)CCC3)cc1 , result: 19.4

// selectivity ratio lookup, molecule = C(=N\c1sc2c(c1-c1nc3ccccc3s1)CCCC2)/c1ccccc1 , result: 9.3
